experimental system: Dipeptidyl peptidase-4 (DPP-4) (Homo sapiens)
Construct: recombinant DPP-4 (human)
Sequence (P27487 39-766): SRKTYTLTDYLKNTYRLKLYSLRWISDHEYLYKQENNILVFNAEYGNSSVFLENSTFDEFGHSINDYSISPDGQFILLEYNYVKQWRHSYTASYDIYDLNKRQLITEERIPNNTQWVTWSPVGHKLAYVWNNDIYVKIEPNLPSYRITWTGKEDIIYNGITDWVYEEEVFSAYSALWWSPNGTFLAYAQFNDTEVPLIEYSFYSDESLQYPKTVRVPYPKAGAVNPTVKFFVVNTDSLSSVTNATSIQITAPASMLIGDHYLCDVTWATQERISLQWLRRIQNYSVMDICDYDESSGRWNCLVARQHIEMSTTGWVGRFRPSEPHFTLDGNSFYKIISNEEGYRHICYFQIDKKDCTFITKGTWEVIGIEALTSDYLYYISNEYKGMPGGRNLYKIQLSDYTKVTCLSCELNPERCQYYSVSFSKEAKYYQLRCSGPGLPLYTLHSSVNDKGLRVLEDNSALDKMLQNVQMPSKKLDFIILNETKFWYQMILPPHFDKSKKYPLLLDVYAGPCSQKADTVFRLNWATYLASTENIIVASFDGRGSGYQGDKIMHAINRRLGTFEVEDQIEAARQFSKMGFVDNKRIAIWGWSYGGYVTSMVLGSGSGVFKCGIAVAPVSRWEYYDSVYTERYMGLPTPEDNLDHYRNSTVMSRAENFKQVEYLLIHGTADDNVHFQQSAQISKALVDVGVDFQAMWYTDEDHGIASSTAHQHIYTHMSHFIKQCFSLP
method summary: colorimetric enzyme assay with recombinant human DPP-4, gly-pro p-nitroanilide substrate, absorbance […] nm
pIC50: −log10 of the molar value.

{"columns": ["chemical smiles", "pIC50"],
 "data": [
  ["O=c1c(O)c(-c2cc(O)c(O)c(O)c2)oc2cc(O)cc(O)c12", 5.32]
]}
